Attribution: PubChem BioAssay (EPA / NIEHS)

molecular target: guinea pig Leukotriene D4 Receptor (LTD4), CYSLTR1 (gene 100135514) (UniProt Q2NNR5); test: NVS_GPCR_gLTD4: NovaScreen (NVS) G Protein-Coupled Receptor Assay for guinea pig Leukotriene D4 Receptor (LTD4) (AID 2283248)
Sequence (Q2NNR5 whole entry, looked up): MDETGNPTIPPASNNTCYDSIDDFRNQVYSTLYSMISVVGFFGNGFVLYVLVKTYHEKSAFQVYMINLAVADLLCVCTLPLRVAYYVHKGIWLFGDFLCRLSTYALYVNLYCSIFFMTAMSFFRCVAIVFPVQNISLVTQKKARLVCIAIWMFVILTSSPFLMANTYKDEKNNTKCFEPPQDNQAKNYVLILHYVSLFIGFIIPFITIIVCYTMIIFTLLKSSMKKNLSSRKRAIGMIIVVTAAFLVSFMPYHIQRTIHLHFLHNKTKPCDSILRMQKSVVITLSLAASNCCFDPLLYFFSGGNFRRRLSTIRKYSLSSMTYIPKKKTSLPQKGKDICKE
Records with an inconclusive call do not appear. Activity calls are given as the source filed them. The calls were made as follows: active = hit-call score of the fitted dose curve at least 0.9, where 1 is the maximum; inconclusive = response in the unintended direction; inactive = score below 0.9.
Outcome codes: yes for active, no for inactive

{"Molecule": "CCON=C(CC)C1=C(O)CC(c2c(C)cc(C)cc2C)CC1=O (centres undefined)", "Assigned class": "yes"}
{"Molecule": "C=CCC1=C(C)C(OC(=O)C2C(C=C(C)C)C2(C)C)CC1=O (centres undefined)", "Assigned class": "no"}
{"Molecule": "Cc1ccc(-c2c(Cl)nc(C#N)n2S(=O)(=O)N(C)C)cc1", "Assigned class": "no"}
{"Molecule": "C#CCOS(=O)OC1CCCCC1Oc1ccc(C(C)(C)C)cc1 (centres undefined)", "Assigned class": "no"}

---

experiment: CEETOX_H295R_ESTRONE: CeeTox H295R High-throughput Steroidogenesis Assay for Estrone (AID 2283441); settings: actives raise or lower the signal;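 also: estrone secreted into medium measured by LC-MS/MS after dansyl derivatization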
Active and inactive are the calls of the source. Rule for the calls: active = hit-call score of the fitted dose curve at least 0.9, where 1 is the maximum; inactive = score below 0.9.
Labels: yes (active), no (inactive)

{"Compound": "CC(C)Oc1cc(-n2nc(C(C)(C)C)oc2=O)c(Cl)cc1Cl", "Assigned class": "no"}
{"Compound": "CCOP(=S)(OCC)SCn1c(=O)oc2cc(Cl)ccc21", "Assigned class": "yes"}
{"Compound": "COP(=S)(OC)Oc1nc(Cl)c(Cl)cc1Cl", "Assigned class": "no"}
{"Compound": "CC1COC(Cn2cncn2)(c2ccc(Oc3ccc(Cl)cc3)cc2Cl)O1 (configuration not stated)", "Assigned class": "no"}
{"Compound": "CCOc1cc(Oc2ccc(C(F)(F)F)cc2Cl)ccc1[N+](=O)[O-]", "Assigned class": "yes"}
{"Compound": "N#CC(CCc1ccc(Cl)cc1)(Cn1cncn1)c1ccccc1 (configuration not stated)", "Assigned class": "no"}
{"Compound": "CCCCNC(=O)n1c(NC(=O)OC)nc2ccccc21", "Assigned class": "no"}

---

experiment: STM_H9_CystineISnorm_perc: Stemina devTOX quickPredict H9 human embryonic stem cell (hESC)-based Assay for Cystine (CYSS) Metabolite Biomarker, Normalized (AID 2283713)
Calls of active or inactive are those of the source. How the source made its calls: active means hit-call score of the fitted dose curve at least 0.9, where 1 is the maximum; inactive means score below 0.9.

{"Compound": "COC(=O)c1ccccc1C(=O)OC", "AC50": "inactive"}
{"Compound": "CCCCC(CC)COC(=O)c1ccccc1C(=O)OCC(CC)CCCC (stereo unspecified)", "AC50": "30 µM (active)"}
{"Compound": "COc1nc(NC(C)C)nc(NC(C)C)n1", "AC50": "13.5 µM (active)"}
{"Compound": "CO/C=C(/C(=O)OC)c1ccccc1Oc1cc(Oc2ccccc2C#N)ncn1", "AC50": "inactive"}
{"Compound": "CN(C)C(=S)SSC(=S)N(C)C", "AC50": "14.5 µM (active)"}
{"Compound": "CCc1nn(C)c(C(=O)NCc2ccc(C(C)(C)C)cc2)c1Cl", "AC50": "1.82 µM (active)"}

---

read-out: Cytochrome P450 (CYP2B6), CYP2B6 (gene 1555); test: LTEA_HepaRG_CYP2B6: Life Technologies and Expression Analysis (LTEA) Assay for Cytochrome P450 (CYP2B6) using HepaRG (AID 2283481); settings: mRNA level, 48 h; actives raise or lower the signal
The source made the active and inactive calls. How the source made its calls: active means hit-call score of the fitted dose curve at least 0.9, where 1 is the maximum; inactive means score below 0.9.
Labels: 1 (yes) for active, 0 (no) for inactive

{"Molecule": "C=CCC1=C(C)[C@@H](OC(=O)[C@@H]2[C@@H](C=C(C)C)C2(C)C)CC1=O", "Assigned class": "1 (yes)"}
{"Molecule": "COc1cnc(OC)n2nc(NS(=O)(=O)c3c(OCC(F)F)cccc3C(F)(F)F)nc12", "Assigned class": "1 (yes)"}
{"Molecule": "CCc1nn(C)c(C(=O)NCc2ccc(C(C)(C)C)cc2)c1Cl", "Assigned class": "1 (yes)"}
{"Molecule": "COc1ccc(C(c2ccc(OC)cc2)C(Cl)(Cl)Cl)cc1", "Assigned class": "1 (yes)"}
{"Molecule": "C=CC1(C)OC(=O)N(c2cc(Cl)cc(Cl)c2)C1=O (configuration not stated)", "Assigned class": "1 (yes)"}
{"Molecule": "CCCCC(CC)COC(=O)c1ccccc1C(=O)OCC(CC)CCCC (configuration not stated)", "Assigned class": "1 (yes)"}
{"Molecule": "C#CCOS(=O)OC1CCCCC1Oc1ccc(C(C)(C)C)cc1 (configuration not stated)", "Assigned class": "1 (yes)"}
{"Molecule": "COc1nc(NC(C)C)nc(NC(C)C)n1", "Assigned class": "1 (yes)"}
{"Molecule": "O=C(O)c1nc(Cl)ccc1Cl", "Assigned class": "0 (no)"}
{"Molecule": "CCON=C(CC)C1=C(O)CC(c2c(C)cc(C)cc2C)CC1=O (configuration not stated)", "Assigned class": "1 (yes)"}
{"Molecule": "N#CC(CCc1ccc(Cl)cc1)(Cn1cncn1)c1ccccc1 (configuration not stated)", "Assigned class": "1 (yes)"}
{"Molecule": "COP(=S)(OC)Oc1nc(Cl)c(Cl)cc1Cl", "Assigned class": "0 (no)"}
{"Molecule": "Cc1ccc(-c2c(Cl)nc(C#N)n2S(=O)(=O)N(C)C)cc1", "Assigned class": "1 (yes)"}
{"Molecule": "CCCCNC(=O)n1c(NC(=O)OC)nc2ccccc21", "Assigned class": "0 (no)"}
{"Molecule": "CS/C(C)=N/OC(=O)N(C)SN(C)C(=O)O/N=C(\\C)SC", "Assigned class": "0 (no)"}
{"Molecule": "CC(Oc1ccc(Cl)cc1Cl)C(=O)O (configuration not stated)", "Assigned class": "0 (no)"}
{"Molecule": "CNC(=O)ON=CC(C)(C)SC", "Assigned class": "1 (yes)"}
{"Molecule": "COC(=O)c1ccccc1C(=O)OC", "Assigned class": "0 (no)"}
{"Molecule": "CCCC1COC(Cn2cncn2)(c2ccc(Cl)cc2Cl)O1 (configuration not stated)", "Assigned class": "1 (yes)"}
{"Molecule": "CCCCNC(=O)OCC#CI", "Assigned class": "1 (yes)"}
{"Molecule": "CCOP(=S)(OCC)SCn1c(=O)oc2cc(Cl)ccc21", "Assigned class": "1 (yes)"}
{"Molecule": "COP(N)(=O)SC (configuration not stated)", "Assigned class": "0 (no)"}
{"Molecule": "CC(C)Oc1cc(-n2nc(C(C)(C)C)oc2=O)c(Cl)cc1Cl", "Assigned class": "1 (yes)"}
{"Molecule": "O=C(Nc1ccccc1)Nc1ccnc(Cl)c1", "Assigned class": "1 (yes)"}
{"Molecule": "CON(C)C(=O)Nc1ccc(Cl)c(Cl)c1", "Assigned class": "1 (yes)"}
{"Molecule": "Fc1ccc(Oc2ccnc3cc(Cl)cc(Cl)c23)cc1", "Assigned class": "1 (yes)"}
{"Molecule": "CCNc1nc(Cl)nc(NC(C)C)n1", "Assigned class": "1 (yes)"}

---

read-out: Insulin Like Growth Factor 1 (IGF1), IGF1 (gene 3479); experiment: LTEA_HepaRG_IGF1: Life Technologies and Expression Analysis (LTEA) Assay for Insulin Like Growth Factor 1 (IGF1) using HepaRG (AID 2283506); settings: mRNA level, 48 h; actives raise or lower the signal
The source made the active and inactive calls. How the source made its calls: active means hit-call score of the fitted dose curve at least 0.9, where 1 is the maximum; inactive means score below 0.9.
Possible outcomes: active, inactive

{"Compound": "CS/C(C)=N/OC(=O)N(C)SN(C)C(=O)O/N=C(\\C)SC", "Assigned class": "inactive"}
{"Compound": "CCc1nn(C)c(C(=O)NCc2ccc(C(C)(C)C)cc2)c1Cl", "Assigned class": "active"}
{"Compound": "CCNc1nc(Cl)nc(NCC)n1", "Assigned class": "inactive"}
{"Compound": "CC(C)C1(C)N=C(c2nc3ccccc3cc2C(=O)O)NC1=O (stereo not given)", "Assigned class": "inactive"}
{"Compound": "CCCCNC(=O)OCC#CI", "Assigned class": "inactive"}
{"Compound": "COc1ccc(C(c2ccc(OC)cc2)C(Cl)(Cl)Cl)cc1", "Assigned class": "active"}
{"Compound": "C#CCOS(=O)OC1CCCCC1Oc1ccc(C(C)(C)C)cc1 (stereo not given)", "Assigned class": "active"}
{"Compound": "CN(C)C(=S)SSC(=S)N(C)C", "Assigned class": "inactive"}
{"Compound": "Cc1ccc(-c2c(Cl)nc(C#N)n2S(=O)(=O)N(C)C)cc1", "Assigned class": "active"}
{"Compound": "CC1=C(C(=O)Nc2ccccc2)SCCO1", "Assigned class": "inactive"}
{"Compound": "COC(=O)N(OC)c1ccccc1COc1ccn(-c2ccc(Cl)cc2)n1", "Assigned class": "active"}
{"Compound": "CC1COC(Cn2cncn2)(c2ccc(Oc3ccc(Cl)cc3)cc2Cl)O1 (stereo not given)", "Assigned class": "active"}
{"Compound": "N#CC(CCc1ccc(Cl)cc1)(Cn1cncn1)c1ccccc1 (stereo not given)", "Assigned class": "active"}
{"Compound": "CCCC1COC(Cn2cncn2)(c2ccc(Cl)cc2Cl)O1 (stereo not given)", "Assigned class": "active"}
{"Compound": "O=C(O)c1nc(Cl)ccc1Cl", "Assigned class": "inactive"}
{"Compound": "CNC(=S)S", "Assigned class": "inactive"}
{"Compound": "C=CC1(C)OC(=O)N(c2cc(Cl)cc(Cl)c2)C1=O (stereo not given)", "Assigned class": "inactive"}
{"Compound": "CON(C)C(=O)Nc1ccc(Cl)c(Cl)c1", "Assigned class": "active"}
{"Compound": "COC(=O)c1ccccc1C(=O)OC", "Assigned class": "inactive"}
{"Compound": "CC(C)(C)c1ccc(CSc2cnn(C(C)(C)C)c(=O)c2Cl)cc1", "Assigned class": "active"}
